Parameter MIC: see the listing below.
Test system: Pedicoccus acidilacti
Assay: MIC, agar dilution on brain-heart infusion agar
Format: cell-based
Settings: Pedioccccus acidilacti (mean of 10)

Completed entries (count: 2):
molecule	result
CNC(CC(C)C)C(=O)NC1C(=O)NC(CC(N)=O)C(=O)NC2C(=O)NC3C(=O)NC(C(=O)NC(C(=O)O)c4cc(O)cc(O)c4-c4cc3ccc4O)C(OC3CC(C)(N)C(O)C(C)O3)c3ccc(c(Cl)c3)Oc3cc2cc(c3OC2OC(CO)C(O)C(O)C2OC2CC(C)(NCc3ccc4ccccc4c3)C(O)C(C)O2)Oc2ccc(cc2Cl)C1O (stereo not drawn) [Compound 1, 2-naphthylmethyl]	18 µg/mL
CNC(CC(C)C)C(=O)NC1C(=O)NC(CC(N)=O)C(=O)NC2C(=O)NC3C(=O)NC(C(=O)NC(C(=O)O)c4cc(O)cc(O)c4-c4cc3ccc4O)C(OC3CC(C)(N)C(O)C(C)O3)c3ccc(c(Cl)c3)Oc3cc2cc(c3OC2OC(CO)C(O)C(O)C2OC2CC(C)(NCc3ccc(OC4CCCCC4)cc3)C(O)C(C)O2)Oc2ccc(cc2Cl)C1O (stereo not drawn) [Compound 124, 4-cyclohexyloxybenzyl]	20 µg/mL

Here is the next item to consider.
Record request: MIC value, item CNC(CC(C)C)C(=O)NC1C(=O)NC(CC(N)=O)C(=O)NC2C(=O)NC3C(=O)NC(C(=O)NC(C(=O)O)c4cc(O)cc(O)c4-c4cc3ccc4O)C(OC3CC(C)(N)C(O)C(C)O3)c3ccc(c(Cl)c3)Oc3cc2cc(c3OC2OC(CO)C(O)C(O)C2OC2CC(C)(NCc3cccc4c3OCO4)C(O)C(C)O2)Oc2ccc(cc2Cl)C1O (stereo not drawn) [Compound 58, 2,3-methylenedioxybenzyl] 55 µg/mL
